Reference source: patent US9492447B2

biological target: human CB2 receptor (Homo sapiens, UniProt P34972); construct: CB2 was cloned into the pCMV-PK vector; 93-0164 (CHO-K1 EA-Arrestin parental cell line); assay: PathHunter β-arrestin assay, CB2 assay
Sequence (P34972 whole entry): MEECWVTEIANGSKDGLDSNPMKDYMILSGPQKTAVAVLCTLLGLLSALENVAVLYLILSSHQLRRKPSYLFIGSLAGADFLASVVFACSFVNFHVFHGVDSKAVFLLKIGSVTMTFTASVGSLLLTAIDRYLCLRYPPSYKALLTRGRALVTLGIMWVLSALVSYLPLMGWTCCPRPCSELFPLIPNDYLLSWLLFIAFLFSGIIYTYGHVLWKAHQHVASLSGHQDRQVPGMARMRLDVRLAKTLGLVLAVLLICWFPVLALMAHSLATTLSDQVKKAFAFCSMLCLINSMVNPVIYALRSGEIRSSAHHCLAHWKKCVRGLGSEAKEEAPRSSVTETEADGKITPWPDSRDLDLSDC
Measured Quantity: EC50 (nM)
Write the number in nM without appending the unit.

In the examples that follow, each entry is paired with its recorded EC50.
// assay human CB2 receptor (Homo sapiens, UniProt P34972), entry O=C(NC1(C(F)(F)F)CCC1)c1nn(-c2cnccn2)c2c1C[C@@H]1C[C@H]21 [Compound 926] , EC50 value = 4.1

// assay human CB2 receptor (Homo sapiens, UniProt P34972), entry O=C(N[C@H]1c2ccccc2C[C@H]1O)c1nn(-c2c[n+]([O-])ccn2)c2c1C[C@@H]1C[C@H]21 [Compound 921] , EC50 value = 2.2

// assay human CB2 receptor (Homo sapiens, UniProt P34972), entry CC(C)(NC(=O)c1nn(-c2c[n+]([O-])ccn2)c2c1C[C@@H]1C[C@H]21)C(F)(F)F [Compound 919] , EC50 value = 2.8

More entries:
// assay human CB2 receptor (Homo sapiens, UniProt P34972), entry O=C(NC1(C(F)(F)F)CCC1)c1nn(-c2c[n+]([O-])ccn2)c2c1C[C@@H]1C[C@H]21 [Compound 765] , EC50 value = 1.1
